# MEASURED_TARGET: DNA polymerase beta (Rattus norvegicus) (UniProt P06766)
# METHOD: Inhibition of rat DNA polymerase beta at 10 ug/mL
VALUE_TYPE: inhibition (%)
# unit: % | format: bare number

The reported value for CC1(C)CC[C@]2(C(=O)O)CC[C@]3(C)C(=CC[C@@H]4[C@@]5(C)CC[C@H](O)C(C)(C)[C@@H]5CC[C@]43C)[C@@H]2C1 in terms of inhibition is 42

The reported value for C[C@H]1[C@H](C)CC[C@]2(C(=O)O)CC[C@]3(C)C(=CC[C@@H]4[C@@]5(C)CC[C@H](O)C(C)(C)[C@@H]5CC[C@]43C)[C@H]12 in terms of inhibition is 55

The reported value for C=C1CC[C@]2(C(=O)O)CC[C@]3(C)[C@H](CC[C@@H]4[C@@]5(C)CC[C@H](O)C(C)(C)[C@@H]5CC[C@]43C)C2=C1C in terms of inhibition is 68

The reported value for C=C1[C@H]2C3=CC[C@@H]4[C@@]5(C)CC[C@H](O)C(C)(C)[C@@H]5CC[C@@]4(C)[C@]3(C)CC[C@@]2(C(=O)O)CC[C@H]1C in terms of inhibition is 65
